meta.source: the supplement of paper PMC10065799

biological target: EPHB2 (UniProt P29323); assay: phosphorylation enrichment, bacterial display (enrichment ratio); higher = better substrate or ligand; peptides without Tyr show the background;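 note: 11-residue human phosphosite peptides and single-mutation variants displayed on the E. coli surface, counted by deep sequencing, each peptide's frequency after selection divided by its frequency in the unselected input library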;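 note: frequency after pTyr selection over input frequency; kinase dosed for 20-30% of maximal phosphorylation in three min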
Sequence (P29323 whole entry, looked up): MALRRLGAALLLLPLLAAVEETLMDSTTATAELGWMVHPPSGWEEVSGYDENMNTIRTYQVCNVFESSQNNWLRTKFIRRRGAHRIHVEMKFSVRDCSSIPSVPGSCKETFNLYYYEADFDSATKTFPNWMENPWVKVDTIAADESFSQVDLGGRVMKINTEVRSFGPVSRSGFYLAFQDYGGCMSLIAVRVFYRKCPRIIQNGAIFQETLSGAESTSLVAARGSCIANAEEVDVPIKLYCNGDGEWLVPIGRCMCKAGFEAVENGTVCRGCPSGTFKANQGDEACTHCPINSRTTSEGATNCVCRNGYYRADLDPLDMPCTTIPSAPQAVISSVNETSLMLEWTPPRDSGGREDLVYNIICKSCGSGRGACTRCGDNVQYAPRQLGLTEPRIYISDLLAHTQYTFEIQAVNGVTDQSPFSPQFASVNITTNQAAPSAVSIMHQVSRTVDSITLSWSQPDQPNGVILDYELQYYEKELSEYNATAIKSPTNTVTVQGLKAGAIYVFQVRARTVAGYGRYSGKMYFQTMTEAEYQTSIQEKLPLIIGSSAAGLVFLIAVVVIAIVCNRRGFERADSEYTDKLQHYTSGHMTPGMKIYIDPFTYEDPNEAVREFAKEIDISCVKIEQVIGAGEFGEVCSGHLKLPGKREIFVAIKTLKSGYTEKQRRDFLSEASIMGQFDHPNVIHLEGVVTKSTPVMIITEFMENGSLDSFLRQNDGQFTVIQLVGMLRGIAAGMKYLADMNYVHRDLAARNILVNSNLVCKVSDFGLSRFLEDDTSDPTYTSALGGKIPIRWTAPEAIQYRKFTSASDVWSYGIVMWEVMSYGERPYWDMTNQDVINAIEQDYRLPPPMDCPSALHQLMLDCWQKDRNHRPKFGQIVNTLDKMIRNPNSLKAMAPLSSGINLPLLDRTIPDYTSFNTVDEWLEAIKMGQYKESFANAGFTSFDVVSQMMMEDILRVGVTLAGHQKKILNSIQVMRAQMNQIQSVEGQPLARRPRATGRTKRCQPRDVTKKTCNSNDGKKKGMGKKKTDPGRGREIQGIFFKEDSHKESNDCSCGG
Test readout: phosphorylation enrichment
Answers are plain numbers.

Here is how some sequences turned out for phosphorylation enrichment.
Sequence text	Readout number
TRSYDYMEGGD [FGF7_Y58]	0.593
AVLALYNSTRD [TGFB1_Y81]	0.53

For every listed record, write down its phosphorylation enrichment.
1. RLCQDYDTIGP [ANK1_Y1073]
2. EPSLVYMVTKI [CPS1_Y768_D767V]
3. GNLQENLTRHV [TGFBR2_Y336_Y336N]
4. LLASGYDSPIN [ABLIM1_Y638_R637G]
5. PAEPRYRARQR [KCNJ11_Y26]

Output line:
3.94
0.534
0.422
0.825
0.722

For every listed record, write down its phosphorylation enrichment.
1. SAPPSYEETVA [LITAF_Y23]
2. CHSDDYVHISL [TSC1_Y406]
3. NPQKSCFIRLF [WAS_Y83_Y83C_YF]
4. FFSSEYHFVGG [CTSC_Y345_YF]
5. YRTPGYREVVI [TNS2_Y673_A670T]
6. DELDKYSEVLK [TPM1_Y60_A63V]
7. VMTLDYSKTVV [SETD2_Y770_V768L]

Output line:
0.636
0.65
0.578
3.73
0.453
0.603
0.52
